Entry source: ChEMBL document CHEMBL5308504

Field: ΔTm. Provide a value for each of the compounds that follow.
Target: Fibroblast growth factor receptor 3 (Homo sapiens)
Conditions: Compound concentration 20.0 uM, Protein concentration 2.0 uM, Result type QC Liability
Description: Thermal Shift Assay. Domain: start/stop: P449-E759
Record the value in °C, omitting the unit from your answer.

Would you mind telling me what ΔTm value was observed for COc1cc(CN(CCN)C(=O)N[C@@H](C)c2ccccc2)ccc1OCc1ccccc1 ?
0.47

Would you mind telling me what ΔTm value was observed for COc1ccccc1-c1cc(Nc2cccc(CS(N)(=O)=O)c2)ncn1 ?
0.74

Would you mind telling me what ΔTm value was observed for FC(F)c1cncc(-c2ccc3ncc4nnc(C5=CCCOCC5)n4c3c2)c1 ?
0.51

Would you mind telling me what ΔTm value was observed for CC(C)c1nc2c(c3c1[C@@H](c1ccc(C(F)(F)F)cc1)OC31CCOCC1)[C@@H](O)CC(C)(C)C2 ?
0.98

Would you mind telling me what ΔTm value was observed for CCc1nc(-c2cccc(C)c2)c(-c2ccnc(NC(=O)c3ccccc3)c2)s1 ?
-0.84

----------
Target: Fibroblast growth factor receptor 3 (Homo sapiens)
Conditions: Compound concentration 20.0 uM, Protein concentration 2.0 uM, Result type QC Liability
# label = T if ΔTm < 0.6 °C else F

For OC(c1ccc(-c2ccc(CN3CCN(Cc4ccncc4)CC3)cc2)c(F)c1)(C(F)(F)F)C(F)(F)F , is the recorded ΔTm below the cut-off of 0.6 °C?
F

For COc1ccccc1N1CCN(c2ncnc3c2cnn3-c2ccccc2)CC1 , is the recorded ΔTm below the cut-off of 0.6 °C?
T

For CC(C)N1CCN(Cc2cnc(-c3cc(-c4cccc5[nH]ccc45)cc4[nH]ncc34)o2)CC1 , is the recorded ΔTm below the cut-off of 0.6 °C?
F

For CC(=O)c1c(C)c2cnc(Nc3ccn(C)n3)nc2n(C2CCCC2)c1=O , is the recorded ΔTm below the cut-off of 0.6 °C?
T

For Cc1cc(S(=O)(=O)N2CC(C)(C)c3cc(-c4ccc(C(F)(F)F)cc4)ccc32)ccc1OCC(=O)O , is the recorded ΔTm below the cut-off of 0.6 °C?
T

For COc1ccc(OC(=O)N(CC(=O)O)Cc2ccc(OCCc3nc(-c4ccccc4)oc3C)cc2)cc1 , is the recorded ΔTm below the cut-off of 0.6 °C?
F

For CN1CCN(C(=O)c2ccc(N(C)c3ncc(C(F)(F)F)c(N[C@@H]4CCC[C@@H]4C(N)=O)n3)cc2)CC1 , is the recorded ΔTm below the cut-off of 0.6 °C?
T

For CCO[C@H](COc1ccc(C(F)(F)F)cc1)CSc1ccc(OCC(=O)O)c(C)c1 , is the recorded ΔTm below the cut-off of 0.6 °C?
T

For COc1cc(-c2nn([C@H]3CC[C@H](N4CCN(C(C)=O)CC4)CC3)c3ncnc(N)c23)ccc1NC(=O)c1cc2ccccc2n1C , is the recorded ΔTm below the cut-off of 0.6 °C?
F

For Cc1nccc(COC(=O)N2C[C@@H]3[C@@H](CNC(=O)c4ccc5[nH]nnc5c4)[C@@H]3C2)n1 , is the recorded ΔTm below the cut-off of 0.6 °C?
T

For CC[C@H]1[C@@H](O)[C@@H]2[C@H](CC[C@]3(C)[C@@H]([C@H](C)CCC(=O)O)CC[C@@H]23)[C@@]2(C)CC[C@@H](O)C[C@@H]12 , is the recorded ΔTm below the cut-off of 0.6 °C?
T

For COc1cccc(Cn2cc(C(=O)Nc3ccc(C)c(S(=O)(=O)N4CCOCC4)c3)c(-c3ccc(C)cc3)n2)c1 , is the recorded ΔTm below the cut-off of 0.6 °C?
F

For Cn1c(C2(NC(=O)c3ccc(NCC4CCCCC4)nc3)CCC2)nc2ccc(/C=C/C(=O)O)cc21 , is the recorded ΔTm below the cut-off of 0.6 °C?
F

For CN(C)C(=O)Cn1cc(-c2nc(C3(c4ccc(-c5cnc(N)nc5)cc4)CC3)no2)cn1 , is the recorded ΔTm below the cut-off of 0.6 °C?
T

For CC(C)S(=O)(=O)c1ccccc1Nc1nc(N[C@@H]2CCCN(CCCCCCCNC(=O)COc3cccc4c3C(=O)N(C3CCC(=O)N(C)C3=O)C4=O)C2)ncc1Cl (some centres undefined) , is the recorded ΔTm below the cut-off of 0.6 °C?
F

For COc1cc(C(=O)O)ncc1C#Cc1ccccc1NS(=O)(=O)c1cccc2c(N(C)C)ccnc12 , is the recorded ΔTm below the cut-off of 0.6 °C?
T

For O=C(O)Cc1ccc(CCNS(=O)(=O)c2ccc(Cl)cc2)cc1 , is the recorded ΔTm below the cut-off of 0.6 °C?
T

For CC(=O)Nc1nc(CN2CCC[C@H](Cc3cc(C)nc(C)c3)C2)cs1 , is the recorded ΔTm below the cut-off of 0.6 °C?
F

For C[C@H](CCC(=O)O)[C@H]1CC[C@H]2[C@@H]3[C@@H](O)C[C@@H]4C[C@H](O)CC[C@]4(C)[C@H]3CC[C@]12C , is the recorded ΔTm below the cut-off of 0.6 °C?
F

For CC#CCC(C)[C@H](O)/C=C/[C@@H]1[C@H]2C/C(=C/CCCC(=O)O)C[C@H]2C[C@H]1O (some centres undefined) , is the recorded ΔTm below the cut-off of 0.6 °C?
T

For CNc1nc(Nc2ccc(C(=O)N3CCOCC3)cc2OC)ncc1Cl , is the recorded ΔTm below the cut-off of 0.6 °C?
F

For CN1C(=O)Cc2ccc(-c3ccc(C[C@@H](C#N)NC(=O)[C@H]4N[C@@H]5CC[C@H]4C5)c(F)c3)cc21 , is the recorded ΔTm below the cut-off of 0.6 °C?
F

For O=C(O)CCCCN(CCc1ccccc1OCc1ccc(CCc2ccccc2)cc1)Cc1ccc(C(=O)O)cc1 , is the recorded ΔTm below the cut-off of 0.6 °C?
F

For O=C(NCc1ccc(F)cc1)C1CCN(S(=O)(=O)c2cc(Cl)cc(Cl)c2)CC1 , is the recorded ΔTm below the cut-off of 0.6 °C?
F

For Cc1cc(SCc2sc(-c3ccc(C(F)(F)F)cc3)nc2C)ccc1OCC(=O)O , is the recorded ΔTm below the cut-off of 0.6 °C?
F

For Cc1cc(-c2cc3ncccc3c(OC[C@H]3CCCNC3)n2)ccc1N(C)C , is the recorded ΔTm below the cut-off of 0.6 °C?
F

For Cc1cc(CN)cc(C)c1-c1ncn(C)c1-c1ccnc2cc(F)ccc12 , is the recorded ΔTm below the cut-off of 0.6 °C?
F

For COc1cc2c(NC3CCN(C(C)C)CC3)nc(C3CCCCC3)nc2cc1OCCCN1CCCC1 , is the recorded ΔTm below the cut-off of 0.6 °C?
F

For CCN(C(=O)c1cc(F)ccc1Oc1cncnc1N1CC2(CCN(C[C@H]3CC[C@H](NS(=O)(=O)CC)CC3)CC2)C1)C(C)C , is the recorded ΔTm below the cut-off of 0.6 °C?
T

For CCCCc1c(-c2ccccc2)nc(N)nc1-c1ccc(OCc2ccccc2)c(F)c1F , is the recorded ΔTm below the cut-off of 0.6 °C?
T

For COCCN(C)c1ccc(NC(=O)/C=C(\C)c2ccc3ccccc3c2)c(C(=O)O)c1 , is the recorded ΔTm below the cut-off of 0.6 °C?
F

For O=C(N[C@H](Cc1ccccc1)C(=O)O)c1cccc(OCc2cccnc2)c1 , is the recorded ΔTm below the cut-off of 0.6 °C?
T

For CN[C@@H](C)C(=O)N[C@H]1CN(C(=O)CC(C)C)CC[C@H]2CC[C@@H](C(=O)NC(c3ccccc3)c3ccccc3)N2C1=O , is the recorded ΔTm below the cut-off of 0.6 °C?
F
